Biological target: T1, human RXFP1 receptor (human, UniProt Q9HBX9 1-757)
T1 sequence (looked up): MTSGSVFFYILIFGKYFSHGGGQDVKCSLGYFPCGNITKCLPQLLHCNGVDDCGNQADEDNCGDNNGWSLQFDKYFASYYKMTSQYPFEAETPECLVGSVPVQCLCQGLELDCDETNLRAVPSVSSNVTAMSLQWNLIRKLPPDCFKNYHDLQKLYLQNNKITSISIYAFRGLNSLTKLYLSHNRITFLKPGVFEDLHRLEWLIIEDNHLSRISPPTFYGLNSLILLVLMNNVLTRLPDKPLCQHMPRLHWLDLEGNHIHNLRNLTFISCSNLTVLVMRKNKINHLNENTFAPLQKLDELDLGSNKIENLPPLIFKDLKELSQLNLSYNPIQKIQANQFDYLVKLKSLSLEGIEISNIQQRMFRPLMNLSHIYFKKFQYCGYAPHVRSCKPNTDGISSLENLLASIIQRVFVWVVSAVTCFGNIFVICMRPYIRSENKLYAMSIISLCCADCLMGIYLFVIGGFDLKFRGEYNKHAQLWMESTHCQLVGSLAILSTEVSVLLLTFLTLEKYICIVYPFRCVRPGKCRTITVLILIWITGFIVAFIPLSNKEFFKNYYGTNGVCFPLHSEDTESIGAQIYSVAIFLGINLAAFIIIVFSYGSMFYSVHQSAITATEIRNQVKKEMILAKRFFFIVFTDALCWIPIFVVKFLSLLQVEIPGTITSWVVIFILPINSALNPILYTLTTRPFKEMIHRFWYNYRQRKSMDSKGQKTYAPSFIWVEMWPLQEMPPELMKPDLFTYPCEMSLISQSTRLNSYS
Experiment: cell-based or functional assay
Cut-off 0.5 nM on hRXFP1/CHO-K1 cAMP EC50 (nM, avg), inclusive. At or above means true; below means false.

Form field: hRXFP1/CHO-K1 cAMP EC50 (nM, avg) at least 0.5 nM? Entry: AQ1-EEEGGG-Glu^γ-C15-CH3 (ligand, not fully specified; Glu^γ bonded by amide to fatty acid -C15-CH3; oxime-linked to pAcF of the A chain; pAcF (para-acetyl-L-phenylalanine) at position 1, oxime-linked to PK enhancer EEEGGG-Glu^γ-C15-CH3) chain 1: XLYSALANKCCHVGCTKRSLARFC chain 2: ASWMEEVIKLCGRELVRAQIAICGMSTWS peptide: EEEGGGE false

Could you please find out whether AQ1-KKKKKK-Glu^γ-C13-COOH (ligand, not fully specified; Glu^γ bonded by amide to fatty acid -C13-COOH; oxime-linked to pAcF of the A chain; pAcF (para-acetyl-L-phenylalanine) at position 1, oxime-linked to PK enhancer KKKKKK-Glu^γ-C13-COOH) chain 1: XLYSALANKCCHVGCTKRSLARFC chain 2: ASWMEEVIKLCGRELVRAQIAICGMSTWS peptide: KKKKKKE has hRXFP1/CHO-K1 cAMP EC50 (nM, avg) that meets 0.5 nM or exceeds it? false

Could you please find out whether AQ1-EEEGGG-Glu^γ-C14-COOH (ligand, not fully specified; Glu^γ bonded by amide to fatty acid -C14-COOH; oxime-linked to pAcF of the A chain; pAcF (para-acetyl-L-phenylalanine) at position 1, oxime-linked to PK enhancer EEEGGG-Glu^γ-C14-COOH) chain 1: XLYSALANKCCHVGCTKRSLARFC chain 2: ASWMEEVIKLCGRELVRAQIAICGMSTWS peptide: EEEGGGE has hRXFP1/CHO-K1 cAMP EC50 (nM, avg) that meets 0.5 nM or exceeds it? true

Determine whether measured hRXFP1/CHO-K1 cAMP EC50 (nM, avg) meets or exceeds 0.5 nM for AQ1-EEEEGEEEEGEEEEGEEEE-Gluγ-C14-CH3 (ligand, not fully specified; Glu^γ bonded by amide to fatty acid -C14-CH3; oxime-linked to pAcF of the A chain; pAcF (para-acetyl-L-phenylalanine) at position 1, oxime-linked to PK enhancer EEEEGEEEEGEEEEGEEEE-Gluγ-C14-CH3) chain 1: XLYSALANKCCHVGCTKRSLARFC chain 2: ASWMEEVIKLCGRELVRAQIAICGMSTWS peptide: EEEEGEEEEGEEEEGEEEEE true

In plain terms: is recorded hRXFP1/CHO-K1 cAMP EC50 (nM, avg) at least 0.5 nM for AQ1-RGGEEKKKEKEK-Glu^γ-C13-COOH (ligand, not fully specified; Glu^γ bonded by amide to fatty acid -C13-COOH; oxime-linked to pAcF of the A chain; pAcF (para-acetyl-L-phenylalanine) at position 1, oxime-linked to PK enhancer RGGEEKKKEKEK-Glu^γ-C13-COOH) chain 1: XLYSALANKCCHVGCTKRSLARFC chain 2: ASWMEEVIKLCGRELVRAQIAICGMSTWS peptide: RGGEEKKKEKEKE ? false

hey, is hRXFP1/CHO-K1 cAMP EC50 (nM, avg) for this one >= 0.5 nM? AQ1-EAQKAQAEAQKAQAEAQKAQA-Glu^γ-C15-COOH (ligand, not fully specified; Glu^γ bonded by amide to fatty acid -C15-COOH; oxime-linked to pAcF of the A chain; pAcF (para-acetyl-L-phenylalanine) at position 1, oxime-linked to PK enhancer EAQKAQAEAQKAQAEAQKAQA-Glu^γ-C15-COOH) chain 1: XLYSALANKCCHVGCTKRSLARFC chain 2: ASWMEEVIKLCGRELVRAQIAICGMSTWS peptide: EAQKAQAEAQKAQAEAQKAQAE true

Could you tell me if the measured hRXFP1/CHO-K1 cAMP EC50 (nM, avg) of AQ1-KSGGSGG-Glu^γ-C13-COOH (ligand, not fully specified; Glu^γ bonded by amide to fatty acid -C13-COOH; oxime-linked to pAcF of the A chain; pAcF (para-acetyl-L-phenylalanine) at position 1, oxime-linked to PK enhancer KSGGSGG-Glu^γ-C13-COOH) chain 1: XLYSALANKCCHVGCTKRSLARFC chain 2: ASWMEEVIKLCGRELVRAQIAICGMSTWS peptide: KSGGSGGE reaches 0.5 nM or more? false

hey, is hRXFP1/CHO-K1 cAMP EC50 (nM, avg) for this one >= 0.5 nM? AQ1-EEEEPEEEEPEEEEPEEEE-Glu^γ-C14-CH3 (ligand, not fully specified; Glu^γ bonded by amide to fatty acid -C14-CH3; oxime-linked to pAcF of the A chain; pAcF (para-acetyl-L-phenylalanine) at position 1, oxime-linked to PK enhancer EEEEPEEEEPEEEEPEEEE-Glu^γ-C14-CH3) chain 1: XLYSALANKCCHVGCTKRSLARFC chain 2: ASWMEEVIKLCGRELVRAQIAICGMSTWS peptide: EEEEPEEEEPEEEEPEEEEE false

# check: hRXFP1/CHO-K1 cAMP EC50 (nM, avg) of AQ1-Sar-Sar-Sar-Sar-Ser-Glu^γ-C13-COOH (ligand, not fully specified; Sar = sarcosine (N-methylglycine); Glu^γ bonded by amide to fatty acid -C13-COOH; oxime-linked to pAcF of the A chain; pAcF (para-acetyl-L-phenylalanine) at position 1, oxime-linked to PK enhancer Sar-Sar-Sar-Sar-Ser-Glu^γ-C13-COOH) chain 1: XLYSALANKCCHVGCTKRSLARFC chain 2: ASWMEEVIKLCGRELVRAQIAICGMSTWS peptide: XXXXSE is greater than or equal to 0.5 nM false

Please check the record AQ1-20kDa PEG (ligand, pAcF (para-acetyl-L-phenylalanine) at position 1, oxime-linked to 20 kDa PEG) chain 1: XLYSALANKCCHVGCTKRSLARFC chain 2: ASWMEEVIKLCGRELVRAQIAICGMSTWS and state if its hRXFP1/CHO-K1 cAMP EC50 (nM, avg) is at or above 0.5 nM. true

# bool: hRXFP1/CHO-K1 cAMP EC50 (nM, avg) of AQ1-GSGSGSGS-Glu^γ-C15-COOH (ligand, not fully specified; Glu^γ bonded by amide to fatty acid -C15-COOH; oxime-linked to pAcF of the A chain; pAcF (para-acetyl-L-phenylalanine) at position 1, oxime-linked to PK enhancer GSGSGSGS-Glu^γ-C15-COOH) chain 1: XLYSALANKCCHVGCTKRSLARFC chain 2: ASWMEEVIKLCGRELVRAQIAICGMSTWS peptide: GSGSGSGSE >= 0.5 nM true

Tell me whether hRXFP1/CHO-K1 cAMP EC50 (nM, avg) is at least 0.5 nM here: AQ1-EEEGGG-Glu^γ-C13-CH3 (ligand, not fully specified; Glu^γ bonded by amide to fatty acid -C13-CH3; oxime-linked to pAcF of the A chain; pAcF (para-acetyl-L-phenylalanine) at position 1, oxime-linked to PK enhancer EEEGGG-Glu^γ-C13-CH3) chain 1: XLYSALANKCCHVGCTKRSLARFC chain 2: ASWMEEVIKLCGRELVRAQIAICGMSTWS peptide: EEEGGGE false

Quick check, hRXFP1/CHO-K1 cAMP EC50 (nM, avg) >= 0.5 nM? AQ1-KGP-Glu^γ-C14-COOH (ligand, not fully specified; Glu^γ bonded by amide to fatty acid -C14-COOH; oxime-linked to pAcF of the A chain; pAcF (para-acetyl-L-phenylalanine) at position 1, oxime-linked to PK enhancer KGP-Glu^γ-C14-COOH) chain 1: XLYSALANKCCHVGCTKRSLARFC chain 2: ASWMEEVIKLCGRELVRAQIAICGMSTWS peptide: KGPE false

Form field: hRXFP1/CHO-K1 cAMP EC50 (nM, avg) at least 0.5 nM? Entry: AQ1-KKKGGG-Glu^γ-C13-COOH (ligand, not fully specified; Glu^γ bonded by amide to fatty acid -C13-COOH; oxime-linked to pAcF of the A chain; pAcF (para-acetyl-L-phenylalanine) at position 1, oxime-linked to PK enhancer KKKGGG-Glu^γ-C13-COOH) chain 1: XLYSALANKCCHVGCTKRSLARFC chain 2: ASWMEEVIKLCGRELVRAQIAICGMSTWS peptide: KKKGGGE false

Please tell me: is the binder AQ1-GETGSSGEGT-Glu^γ-C13-COOH (ligand, not fully specified; Glu^γ bonded by amide to fatty acid -C13-COOH; oxime-linked to pAcF of the A chain; pAcF (para-acetyl-L-phenylalanine) at position 1, oxime-linked to PK enhancer GETGSSGEGT-Glu^γ-C13-COOH) chain 1: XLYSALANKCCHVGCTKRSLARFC chain 2: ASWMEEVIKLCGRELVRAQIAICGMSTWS peptide: GETGSSGEGTE at or over 0.5 nM in terms of hRXFP1/CHO-K1 cAMP EC50 (nM, avg)? true

Dear colleague, could you confirm whether AQ1-EGGS-Glu^γ-C14-COOH (ligand, not fully specified; Glu^γ bonded by amide to fatty acid -C14-COOH; oxime-linked to pAcF of the A chain; pAcF (para-acetyl-L-phenylalanine) at position 1, oxime-linked to PK enhancer EGGS-Glu^γ-C14-COOH) chain 1: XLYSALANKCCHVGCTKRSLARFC chain 2: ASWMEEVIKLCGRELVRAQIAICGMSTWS peptide: EGGSE has hRXFP1/CHO-K1 cAMP EC50 (nM, avg) at or above 0.5 nM? false

I'd appreciate it if you could say whether AQ1-GGGEEE-Glu^γ-C13-COOH (ligand, not fully specified; Glu^γ bonded by amide to fatty acid -C13-COOH; oxime-linked to pAcF of the A chain; pAcF (para-acetyl-L-phenylalanine) at position 1, oxime-linked to PK enhancer GGGEEE-Glu^γ-C13-COOH) chain 1: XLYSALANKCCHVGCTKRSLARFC chain 2: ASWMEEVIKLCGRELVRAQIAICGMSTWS peptide: GGGEEEE has hRXFP1/CHO-K1 cAMP EC50 (nM, avg) at least equal to 0.5 nM. false

Threshold query (hRXFP1/CHO-K1 cAMP EC50 (nM, avg) >= 0.5 nM) on AQ1-GGGGS-Glu^γ (SEQ ID NO: 139)-C14-COOH (ligand, not fully specified; Glu^γ bonded by amide to fatty acid -C14-COOH (-(C=O)-(CH2)13-COOH); oxime-linked to pAcF of the A chain; modified para-acetyl-L-phenylalanine at the N-terminus (position 1), oxime-linked to PK enhancer GGGGS-Glu^γ-C14-COOH (Formula III)) chain 1: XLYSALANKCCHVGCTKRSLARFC chain 2: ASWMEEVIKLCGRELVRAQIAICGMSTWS peptide: GGGGSE false

Could you tell me if the measured hRXFP1/CHO-K1 cAMP EC50 (nM, avg) of AQ1-KK-Glu^γ-C15-COOH (ligand, not fully specified; Glu^γ bonded by amide to fatty acid -C15-COOH; oxime-linked to pAcF of the A chain; pAcF (para-acetyl-L-phenylalanine) at position 1, oxime-linked to PK enhancer …) chain 1: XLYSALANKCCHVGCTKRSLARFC chain 2: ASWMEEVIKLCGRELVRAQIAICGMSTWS peptide: KKE reaches 0.5 nM or more? false

Please check the record AQ1-GGGGS-Glu^γ-C15-COOH (ligand, not fully specified; Glu^γ bonded by amide to fatty acid -C15-COOH; oxime-linked to pAcF of the A chain; pAcF (para-acetyl-L-phenylalanine) at position 1, oxime-linked to PK enhancer GGGGS-Glu^γ-C15-COOH) chain 1: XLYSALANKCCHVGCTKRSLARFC chain 2: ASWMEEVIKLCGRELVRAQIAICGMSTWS peptide: GGGGSE and state if its hRXFP1/CHO-K1 cAMP EC50 (nM, avg) is at or above 0.5 nM. true

I'd appreciate it if you could say whether AQ1-EEEGGG-Glu^γ-C15-COOH (ligand, not fully specified; Glu^γ bonded by amide to fatty acid -C15-COOH; oxime-linked to pAcF of the A chain; pAcF (para-acetyl-L-phenylalanine) at position 1, oxime-linked to PK enhancer EEEGGG-Glu^γ-C15-COOH) chain 1: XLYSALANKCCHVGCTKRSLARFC chain 2: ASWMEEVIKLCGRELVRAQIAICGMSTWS peptide: EEEGGGE has hRXFP1/CHO-K1 cAMP EC50 (nM, avg) at least equal to 0.5 nM. true
